ENDPOINT_LABEL: melting point

Here's what some known entries look like.
# COMPOUND, melting point
data = [
    ("O=C(O)c1c[nH]c(-c2cccc([N+](=O)[O-])c2)n1", "184 to 186 °C"),
    ("CC(CO)N1Cc2cccc(N)c2C1 (stereo not drawn)", "129 to 131 °C"),
    ("CC(C)(CCC(=O)O)NC(=O)OCC1c2ccccc2-c2ccccc21", "119 to 121 °C"),
]

Reported melting point of CCN(CC)S(=O)(=O)c1ccc(-c2ccc(C=O)o2)cc1 : 119 to 121 °C

Reported melting point of CCCCN(C)c1ccc(C(=O)O)cc1 : 134 to 136 °C

Reported melting point of O=C(O)c1c[nH]cc1-c1cc(Cl)c2c(c1)OCCO2 : 209 to 211 °C

Reported melting point of Sc1nnc(CCCc2ccccc2)o1 : 53 to 55 °C

Reported melting point of Nc1cc(-c2ccc(Br)o2)no1 : 144 to 146 °C

Reported melting point of CC(C)(C)OC(=O)N1CCC(C(=O)O)(C(=O)O)C1 : 131 to 133 °C

Reported melting point of CS(=O)(=O)c1ccc(-c2nc(CCl)cs2)cc1 : 151 to 153 °C

###

ENDPOINT_LABEL: melting point

Here's what some known entries look like.
# COMPOUND, melting point
records = [
    ("O=C(O)c1ccn(-c2ccc(Cl)cc2Cl)n1", "179 to 181 °C"),
    ("N#Cc1c(N)sc2c1CCCCC2", "103 to 115 °C"),
]

Reported melting point of O=c1ccc2cc(S(=O)(=O)Cl)ccc2[nH]1 : 278 to 280 °C

Reported melting point of OC(CNCc1ccccc1)c1ccco1 (stereo unspecified) : 68 to 70 °C

Reported melting point of Nc1[nH]ncc1-c1nc2cc(Cl)ccc2s1 : 274 to 276 °C

Reported melting point of NCC(O)c1ccc(Cl)s1 (stereo unspecified) : 74 to 76 °C

Reported melting point of OC1CCc2cc(Br)ccc21 (stereo unspecified) : 69 to 71 °C

Reported melting point of Nc1nonc1C(=O)N1CCOCC1 : 136 to 138 °C

Reported melting point of Cn1c(=O)[nH]c2cc(C(=O)O)ccc21 : 391 to 393 °C

Reported melting point of NC(=NO)c1ccccc1CN1CCC(O)CC1 : 137 to 139 °C

Reported melting point of CC1CNc2cc(Cl)ccc2O1 (stereo unspecified) : 75 to 77 °C

Reported melting point of O=c1cc(CCl)nc2ccc(Cl)cn12 : 149 to 151 °C

Reported melting point of O=C(O)c1ccc(NS(=O)(=O)c2cccc([N+](=O)[O-])c2)cc1 : 267 to 269 °C

Reported melting point of O=C(CN1CCNCC1)Nc1cccc(F)c1 : 68 to 70 °C

Reported melting point of COc1ccc(S)c2ccccc12 : 142 to 144 °C

Reported melting point of Nc1ccc(-c2ccccc2)nn1 : 145 to 147 °C

Reported melting point of O=C(O)c1ccc2c(=O)[nH]c(CCl)nc2c1 : 344 to 346 °C

Reported melting point of COc1cccc(C(=O)O)n1 : 133 to 135 °C

Reported melting point of O=c1[nH]cnc2c1cnn2-c1ccc(F)cc1 : 243 to 246 °C

Reported melting point of CC(C)c1cc(C(=O)O)c2cnn(C(C)C)c2n1 : 144 to 146 °C

Reported melting point of c1cc2[nH]ccc2cn1 : 107 to 109 °C

Reported melting point of Cc1ccc(C(=O)c2ccc3[nH]c(=O)oc3c2)cc1 : 206 to 208 °C

Reported melting point of Cc1cc(C(=O)CCl)c(C)[nH]1 : 143 to 145 °C
